PROTOCOL DETAILS: WHO-TDR: Cytotoxicity
Format: toxicity, cell-based
EXPERIMENTAL SETUP: human, MRC5 cells
Listed here: items and their measured IC50.

In: // query IC50 value for entry `O=C(Cc1csc(Nc2ccc(F)cc2)n1)N1CCN(c2ncccn2)CC1`
Out: > 12 µg/mL

In: Bench note: what IC50 did CC(=O)c1sc(NC(=O)C2CCCCN2S(C)(=O)=O)nc1-c1ccccc1 (configuration not stated) show?
Out: > 12.2 µg/mL

In: What value of measured IC50 is listed for `CCOc1ccc2nc(NC(=O)CS(=O)(=O)c3ccc(Cl)cc3)sc2c1` ?
Out: > 12.3 µg/mL

In: What value of IC50 has been recorded for this entry: `O=C(C1CC1)N1CCc2ccc(NS(=O)(=O)c3ccc4c(c3)CCCC4)cc21`
Out: 1.28 µg/mL

In: May I ask what IC50 has been recorded for `CC(C)CCN1C(=O)CCc2cc(NC(=O)c3cccc(Br)c3)ccc21` ?
Out: > 12.5 µg/mL

In: // lookup IC50 for `O=S(=O)(c1ccccc1)N1CCN(c2ccc(Nc3ccncc3)nn2)CC1`
Out: > 11.9 µg/mL

In: Bench note: what IC50 did `O=C(Nc1nc(-c2ccccn2)cs1)C1CCN(S(=O)(=O)c2ccc(Cl)cc2)CC1` show?
Out: > 13.9 µg/mL

In: Query: IC50; subject: `CCCS(=O)(=O)Nc1ccc(Nc2nc(C)cc(N(C)C)n2)cc1`
Out: > 10.5 µg/mL

In: Name the reported IC50 value associated with the compound `CSc1ccccc1NC(=O)c1ccc(Cl)s1`
Out: > 8.51 µg/mL

In: What does the data say about its IC50? Entry: `O=C(C1CC1)N1CCN(c2ccc(-c3ccccn3)nn2)CC1`
Out: 2.38 µg/mL

In: I am curious: what IC50 value has been reported for COc1ccccc1N1CCN(C(CNS(=O)(=O)c2c(C)cc(C)cc2C)c2cccnc2)CC1 (configuration not stated) ?
Out: > 14.8 µg/mL

In: For `CCSc1nnc(NC(=O)CSc2nncc(=O)[nH]2)s1` , what is its reported IC50?
Out: 1.95 µg/mL

In: Recorded IC50 of `COc1cccc2sc(Nc3nc4c(s3)CCCC4)nc12` , please.
Out: > 9.52 µg/mL

In: Form field: reported IC50 of `CSc1ccccc1NC(=O)CCc1csc(NC(=O)c2cccs2)n1`
Out: > 12.1 µg/mL

In: Request the reported IC50 associated with `O=C(CCCSc1ccc(F)cc1)Nc1nc(-c2ccccn2)cs1`
Out: 3.76 µg/mL

In: Need IC50, item `CN(C)CCCN(C(=O)c1cc(-c2cccs2)nc2ccccc12)c1nc2c(F)cccc2s1`
Out: 4.21 µg/mL

The reported measurements were obtained from ChEMBL document CHEMBL2093137.
